The values you see were collected from PubChem BioAssay (Tox21).

- Tested on: Glucocorticoid receptor (Homo sapiens)
- Assay explanation: qHTS assay to identify small molecule agonists of the glucocorticoid receptor (GR) signaling pathway (AID 720691)
- Settings: GR-bla HeLa, beta-lactamase reporter ratio, 18 h; series mostly up to 62.4 µM
Results filed as inconclusive are left out. Calls of active or inactive are those of the source. Calls come from the whole dose curve; as a rule, active = well fitted activation curve with a large enough effect in the signal ratio in the repeat runs (not every such curve was filed as active); inconclusive = weak or mixed curves, or effect the other way; inactive = no such curve, though single readings can be large or run the other way; the % refers to the signal ratio.
Measured metric: outcome

1. N=C(N=C(N)N)N1CCOCC1	inactive
2. O=[N+]([O-])c1cccc(Cl)c1Cl	inactive
3. Cc1cc(O)ccc1N	inactive

---

- Tested on: Estrogen receptor (Homo sapiens) (UniProt P03372)
- Sequence (P03372 whole entry, looked up): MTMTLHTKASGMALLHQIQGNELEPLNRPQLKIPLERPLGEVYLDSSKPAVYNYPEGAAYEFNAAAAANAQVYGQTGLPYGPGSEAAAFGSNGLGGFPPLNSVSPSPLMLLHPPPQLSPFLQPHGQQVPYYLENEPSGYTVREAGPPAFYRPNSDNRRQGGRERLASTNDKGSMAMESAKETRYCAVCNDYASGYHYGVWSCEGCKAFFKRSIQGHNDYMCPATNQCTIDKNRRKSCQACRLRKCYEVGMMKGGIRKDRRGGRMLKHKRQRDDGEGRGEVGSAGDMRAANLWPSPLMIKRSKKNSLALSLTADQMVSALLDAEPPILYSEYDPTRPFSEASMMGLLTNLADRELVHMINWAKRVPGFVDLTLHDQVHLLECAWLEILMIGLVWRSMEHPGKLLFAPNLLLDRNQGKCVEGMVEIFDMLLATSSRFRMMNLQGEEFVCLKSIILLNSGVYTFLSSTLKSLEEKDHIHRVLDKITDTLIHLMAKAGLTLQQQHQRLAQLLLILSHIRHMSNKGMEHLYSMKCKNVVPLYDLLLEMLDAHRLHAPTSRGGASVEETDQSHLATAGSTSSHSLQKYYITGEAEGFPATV
- Assay explanation: qHTS assay to identify small molecule agonists of the estrogen receptor alpha (ER-alpha) signaling pathway (AID 743075);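 note: HEK293 GripTite cells with ER-alpha and UAS-driven beta-lactamase reporter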
- Settings: HEK293 ER-alpha-UAS-bla, beta-lactamase FRET ratio, 18 h; series mostly up to 70.1 µM
Active and inactive are the calls of the source. Calls come from the whole dose curve.
Outcomes: active, inactive

1. C=CC[N+]1([C@H]2C[C@H]3[C@@H]4CC[C@H]5C[C@H](OC(C)=O)[C@@H](N6CCCCC6)C[C@]5(C)[C@H]4CC[C@]3(C)[C@H]2OC(=O)CC)CCCCC1	inactive
2. N[C@H]1C(O)O[C@H](CO)[C@H](O)[C@@H]1O (some centres undefined)	inactive
3. CCCCCCCCC(CO)CCCCCC (centres undefined)	inactive
4. CCCCCOC(=O)c1ccc(O)cc1	active
